Values compiled from patent US20260042747A1.

Biological target: recombinant human KIT tyrosine kinase protein (Homo sapiens (Human), UniProt P10721)
Sequence (P10721 546-976): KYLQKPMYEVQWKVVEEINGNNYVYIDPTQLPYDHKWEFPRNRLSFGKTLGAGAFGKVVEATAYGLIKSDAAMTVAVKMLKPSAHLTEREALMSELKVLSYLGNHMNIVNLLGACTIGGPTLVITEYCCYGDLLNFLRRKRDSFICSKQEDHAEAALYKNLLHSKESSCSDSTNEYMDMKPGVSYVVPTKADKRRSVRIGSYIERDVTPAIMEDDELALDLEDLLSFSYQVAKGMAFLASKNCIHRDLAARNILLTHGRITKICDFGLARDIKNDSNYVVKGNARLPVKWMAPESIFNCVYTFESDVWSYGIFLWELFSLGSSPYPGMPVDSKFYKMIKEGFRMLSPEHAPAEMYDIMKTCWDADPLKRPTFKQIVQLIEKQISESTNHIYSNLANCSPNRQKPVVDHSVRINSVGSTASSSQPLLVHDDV
Test: KIT tyrosine kinase assay (ADP-Glo)
Assay type: biochemical
Conditions: Table 99
Experimental: An in vitro assay utilizing the recombinant human KIT tyrosine kinase protein was developed to measure compound inhibition of KIT. KIT tyrosine kinase activity was measured by the ADP-Glo Kinase Assay system with poly […]) peptide substrate. Kinase Assay was performed in white 384-well plates and the luminescence was measured by Victor X5 Multilabel Counter (Perkin Elmer). […] The tyrosine phosphorylation by KIT kinase was quantified by ADP-Glo kinase assay kit following the manufacturer's protocol. […]
parameter: IC50

Below, 3 compounds whose answers are already recorded.
Please report IC50 for the following compound: Cn1c(=O)[nH]c2cc(C(=O)NCc3ccc(NC4CCC(F)(F)CC4)nc3)ccc21
131 nM

Please report IC50 for the following compound: CN(c1ccc(CNC(=O)c2ccc3c(c2)[nH]c(=O)n3C)cn1)C1CC(OC(F)(F)F)C1 (single isomer, unassigned) [107 Isomer II]
28 nM

Please report IC50 for the following compound: CN(c1ccc(CNC(=O)c2ccc3c(c2)[nH]c(=O)n3C)cn1)C1CCCC(O)C1 (stereo not shown)
51 nM

***
Please report IC50 for the following compound: CN(c1ccc(CNC(=O)c2cc3[nH]c(=O)n(C)c3cc2F)cn1)C1CCC(F)(F)CC1
21 nM

* * *

Target: recombinant human KIT tyrosine kinase protein (Homo sapiens (Human), UniProt P10721)
Experiment: KIT tyrosine kinase assay (ADP-Glo)
Assay type: biochemical
Settings: Table 99
IC50 strictly under 40 nM means True; at 40 nM or over means False.

Please determine if CC(NC(=O)c1ccc2c(c1)[nH]c(=O)n2C)c1ccc(N(C)C(C)C)nc1 (stereo not shown) [Example 130] is below 40 nM in terms of IC50.
False

Please determine if CC(NC(=O)c1ccc2c(c1)[nH]c(=O)n2C)c1ccc(N(C)C(C)C)nc1 (single isomer, unassigned) [130 Peak 1] is below 40 nM in terms of IC50.
False

Please determine if CN(c1ccc(CNC(=O)c2ccc3c(c2)[nH]c(=O)n3C)cn1)C1Cc2ccccc2C1 [Example 120] is below 40 nM in terms of IC50.
False

Please determine if CC(CO)N(C)c1ccc(CNC(=O)c2ccc3c(c2)[nH]c(=O)n3C)cn1 (stereo not shown) [Example 133] is below 40 nM in terms of IC50.
False

Please determine if [2H]C([2H])([2H])n1c(=O)[nH]c2cc(C(=O)NCc3ccc(N(C)[C@H]4C[C@@H](C(F)(F)F)C4)nc3)ccc21 (relative stereo) [Example 116] is below 40 nM in terms of IC50.
True

Please determine if CN(c1ccc(CNC(=O)c2cc(Cl)c3[nH]c(=O)[nH]c3c2)cn1)[C@H]1C[C@@H](C(F)(F)F)C1 [compound 141] is below 40 nM in terms of IC50.
True

Please determine if CC(C)N(C)c1ccc(CNC(=O)c2ccc3[nH]c(=O)[nH]c3c2)cn1 [Example 129] is below 40 nM in terms of IC50.
True

* * *

Target: recombinant human KIT tyrosine kinase protein (Homo sapiens (Human), UniProt P10721)
Test: KIT tyrosine kinase assay (ADP-Glo)
Format: biochemical
Settings: Table 99
parameter: IC50 (nM)
Answers are plain numbers, in nM.

Please report IC50 for the following compound: CC(NC(=O)c1ccc2c(c1)[nH]c(=O)n2C)c1ccc(N(C)C(C)C)nc1 (single isomer, unassigned) [130 Peak 2]
1040

Please report IC50 for the following compound: COC(=O)C(NC(=O)c1ccc2c(c1)[nH]c(=O)n2C)c1ccc(N(C)C(C)C)nc1 (stereo not shown) [Example 114a]
108

Please report IC50 for the following compound: CC(C)N(C)c1ccc(C(NC(=O)c2ccc3c(c2)[nH]c(=O)n3C)c2ccccc2)cn1 (stereo not shown) [Example 113]
2000

Please report IC50 for the following compound: CN(c1ccc(CNC(=O)c2cc3[nH]c(=O)[nH]c3cc2F)cn1)C1CCC(F)(F)CC1 [Example 135]
30

I would be grateful if you could provide IC50 for each of the following entries.
1. CN(c1ccc(CNC(=O)c2ccc3c([nH]c(=O)n3C)c2F)cn1)C1CCC(F)(F)C1 (stereo not shown) [Example 147]
2. CN(c1ccc(CNC(=O)c2cc3[nH]c(=O)n(C)c3cc2F)cn1)C1CC(F)(F)C1 [Example 139]
3. CN(c1ccc(CNC(=O)c2ccc3c(c2)[nH]c(=O)n3C)cn1)C1CC(OC(F)F)C1 (single isomer, unassigned) [106 Isomer I]

23
75
36
